system: Escherichia coli TOP10; assay: shrunken log2 fold change of peptide-encoding DNA abundance (4.5 h post-induction vs induction); higher = less antimicrobial activity (less host growth inhibition); conditions: time post-induction: 4.5 h; library: site-saturation at positions 5, 18, 19, 20
Listed next: entries and their corresponding shrunken log2 fold change.
Lab note: jot the number down without any unit.

See these solved cases before continuing.
- input.sequence: "RRIRARPPRLPRPRPRPQAPPRP"
  study.system: "Escherichia coli TOP10"
  shrunken log2 fold change: 0.238
- input.sequence: "RRIRHRPPRLPRPRPRPIRRPRP"
  study.system: "Escherichia coli TOP10"
  shrunken log2 fold change: 0.0591
- input.sequence: "RRIRTRPPRLPRPRPRPLWYPRP"
  study.system: "Escherichia coli TOP10"
  shrunken log2 fold change: -0.245
- input.sequence: "RRIRCRPPRLPRPRPRPGMDPRP"
  study.system: "Escherichia coli TOP10"
  shrunken log2 fold change: -0.0572
- input.sequence: "RRIRPRPPRLPRPRPRPNHIPRP"
  study.system: "Escherichia coli TOP10"
  shrunken log2 fold change: -0.856

Exercise: Test system Escherichia coli TOP10; read-out shrunken log2 fold change; what value for RRIRMRPPRLPRPRPRPQCDPRP ?;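 note: peptides expressed intracellularly from a pBAD plasmid library in pooled LB shake-flask culture, induced with 0.3% L-arabinose, DNA abundance read by NGS, three biological replicates, DESeq2 with apeglm shrinkage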
Solution: -0.0599

Exercise: Any idea what shrunken log2 fold change came out for RRIRCRPPRLPRPRPRPEIDPRP on Escherichia coli TOP10?
Solution: 0.138

Exercise: What measured shrunken log2 fold change is associated with RRIRTRPPRLPRPRPRPRVLPRP on Escherichia coli TOP10?
Solution: 0.242
